Data credit: patent US20140171357A1

test system: S. pneumoniae (22); test: MIC broth microdilution, S. pneumoniae; settings: S. pneumoniae (22); MHB + lysed horse blood
Parameter: MIC 90%. Scope: all listed entries.
Dear colleague, please return just the value in µg/mL, with no unit written.

// worked examples, MIC 90% included
Give its MIC 90% value. Item: CCCCCCCCCCNCCNC1(C)CC(OC2C(Oc3c4cc5cc3Oc3ccc(cc3Cl)C(O)C3NC(=O)C(NC(=O)C5NC(=O)C(CC(N)=O)NC(=O)C(NC(=O)C(CC(C)C)NC)C(O)c5ccc(c(Cl)c5)O4)c4ccc(O)c(c4)-c4c(cc(O)c(CNCCOCCOCC[N+](C)(C)C)c4O)C(C(=O)O)NC3=O)OC(CO)C(O)C2O)OC(C)C1O (stereo not drawn) [Compound 1]
0.03

Entry to check: CCCCCCCCCCNCCNC1(C)CC(OC2C(Oc3c4cc5cc3Oc3ccc(cc3Cl)C(O)C3NC(=O)C(NC(=O)C5NC(=O)C(CC(N)=O)NC(=O)C(NC(=O)C(CC(C)C)NC)C(O)c5ccc(c(Cl)c5)O4)c4ccc(O)c(c4)-c4c(cc(O)c(CNCCOCCOCCN)c4O)C(C(=O)O)NC3=O)OC(CO)C(O)C2O)OC(C)C1O (stereo not drawn) [Compound 3]
0.03

With those in mind, consider the next compound.
Give its MIC 90% value. Item: CNC(CC(C)C)C(=O)NC1C(=O)NC(CC(N)=O)C(=O)NC2C(=O)NC3C(=O)NC(C(=O)NC(C(=O)O)c4cc(O)c(CNCCOCCOCC[N+](C)(C)C)c(O)c4-c4cc3ccc4O)C(O)c3ccc(c(Cl)c3)Oc3cc2cc(c3OC2OC(CO)C(O)C(O)C2OC2CC(C)(NCc3ccc(-c4ccc(Cl)cc4)cc3)C(O)C(C)O2)Oc2ccc(cc2Cl)C1O (stereo not drawn) [Compound 13]
0.12

====

test system: VanB vancomycin-resistant E. faecium (10); test: MIC broth microdilution, VanB E. faecium; conditions: E. faecium, VanB (10)
Parameter: MIC 90%. Scope: all listed entries.
Dear colleague, please return just the value in µg/mL, with no unit written.

// worked examples, MIC 90% included
Quick check: MIC 90% on VanB vancomycin-resistant E. faecium (10), item CNC(CC(C)C)C(=O)NC1C(=O)NC(CC(N)=O)C(=O)NC2C(=O)NC3C(=O)NC(C(=O)NC(C(=O)NCCOCCOCCN(C)C)c4cc(O)cc(O)c4-c4cc3ccc4O)C(O)c3ccc(c(Cl)c3)Oc3cc2cc(c3OC2OC(CO)C(O)C(O)C2OC2CC(C)(NCc3ccc(-c4ccc(Cl)cc4)cc3)C(O)C(C)O2)Oc2ccc(cc2Cl)C1O (stereo not drawn) ?
0.06

Entry to check: CNC(CC(C)C)C(=O)NC1C(=O)NC(CC(N)=O)C(=O)NC2C(=O)NC3C(=O)NC(C(=O)NC(C(=O)O)c4cc(O)c(CNCCOCCOCC[N+](C)(C)C)c(O)c4-c4cc3ccc4O)C(O)c3ccc(c(Cl)c3)Oc3cc2cc(c3OC2OC(CO)C(O)C(O)C2OC2CC(C)(NCc3ccc(OCc4ccc(Cl)c(Cl)c4)cc3)C(O)C(C)O2)Oc2ccc(cc2Cl)C1O (stereo not drawn)
0.06

With those in mind, consider the next compound.
Quick check: MIC 90% on VanB vancomycin-resistant E. faecium (10), item CCCCCCCCCCNCCNC1(C)CC(OC2C(Oc3c4cc5cc3Oc3ccc(cc3Cl)C(O)C3NC(=O)C(NC(=O)C5NC(=O)C(CC(N)=O)NC(=O)C(NC(=O)C(CC(C)C)NC)C(O)c5ccc(c(Cl)c5)O4)c4ccc(O)c(c4)-c4c(O)cc(O)cc4C(C(=O)NCCOCCOCCN)NC3=O)OC(CO)C(O)C2O)OC(C)C1O (stereo not drawn) ?
0.03

====

system: Staphylococcus aureus (65 strains); test: MIC broth microdilution, S. aureus all isolates; settings: S. aureus (65), all resistance subsets
experimental endpoint: MIC 90% (µg/mL)
Dear colleague, please return just the value in µg/mL, with no unit written.

// worked examples, MIC 90% included
Give its MIC 90% value. Item: CNC(CC(C)C)C(=O)NC1C(=O)NC(CC(N)=O)C(=O)NC2C(=O)NC3C(=O)NC(C(=O)NC(C(=O)O)c4cc(O)c(CNCCOCCOCCN)c(O)c4-c4cc3ccc4O)C(O)c3ccc(c(Cl)c3)Oc3cc2cc(c3OC2OC(CO)C(O)C(O)C2OC2CC(C)(NCc3ccc(-c4ccc(Cl)cc4)cc3)C(O)C(C)O2)Oc2ccc(cc2Cl)C1O (stereo not drawn) [Compound 11]
0.5

Entry to check: CNC(CC(C)C)C(=O)NC1C(=O)NC(CC(N)=O)C(=O)NC2C(=O)NC3C(=O)NC(C(=O)NC(C(=O)O)c4cc(O)c(CNCCOCCOCCN)c(O)c4-c4cc3ccc4O)C(O)c3ccc(c(Cl)c3)Oc3cc2cc(c3OC2OC(CO)C(O)C(O)C2OC2CC(C)(NCc3ccc(OCc4ccc(Cl)c(Cl)c4)cc3)C(O)C(C)O2)Oc2ccc(cc2Cl)C1O (stereo not drawn) [Compound 28]
0.12

Entry to check: CCCCCCCCCCNCCNC1(C)CC(OC2C(Oc3c4cc5cc3Oc3ccc(cc3Cl)C(O)C3NC(=O)C(NC(=O)C5NC(=O)C(CC(N)=O)NC(=O)C(NC(=O)C(CC(C)C)NC)C(O)c5ccc(c(Cl)c5)O4)c4ccc(O)c(c4)-c4c(cc(O)c(CNCCOCCOCC[N+](C)(C)C)c4O)C(C(=O)O)NC3=O)OC(CO)C(O)C2O)OC(C)C1O (stereo not drawn) [Compound 1]
0.12

Entry to check: CNC(CC(C)C)C(=O)NC1C(=O)NC(CC(N)=O)C(=O)NC2C(=O)NC3C(=O)NC(C(=O)NC(C(=O)O)c4cc(O)c(CNCCOCCOCC[N+](C)(C)C)c(O)c4-c4cc3ccc4O)C(O)c3ccc(c(Cl)c3)Oc3cc2cc(c3OC2OC(CO)C(O)C(O)C2OC2CC(C)(NCc3ccc(OCc4ccc(Cl)c(Cl)c4)cc3)C(O)C(C)O2)Oc2ccc(cc2Cl)C1O (stereo not drawn) [Compound 29]
0.25

Entry to check: CCCCCCCCCCNCCNC1(C)CC(OC2C(Oc3c4cc5cc3Oc3ccc(cc3Cl)C(O)C3NC(=O)C(NC(=O)C5NC(=O)C(CC(N)=O)NC(=O)C(NC(=O)C(CC(C)C)NC)C(O)c5ccc(c(Cl)c5)O4)c4ccc(O)c(c4)-c4c(O)cc(O)cc4C(C(=O)NCCOCCOCCN)NC3=O)OC(CO)C(O)C2O)OC(C)C1O (stereo not drawn) [Compound 2]
0.12

With those in mind, consider the next compound.
Give its MIC 90% value. Item: CNC(CC(C)C)C(=O)NC1C(=O)NC(CC(N)=O)C(=O)NC2C(=O)NC3C(=O)NC(C(=O)NC(C(=O)NCCOCCOCCN)c4cc(O)cc(O)c4-c4cc3ccc4O)C(O)c3ccc(c(Cl)c3)Oc3cc2cc(c3OC2OC(CO)C(O)C(O)C2OC2CC(C)(NCc3ccc(-c4ccc(Cl)cc4)cc3)C(O)C(C)O2)Oc2ccc(cc2Cl)C1O (stereo not drawn) [Compound 9]
0.5

====

system: S. aureus ATCC 25923; experiment: Neutropenic murine thigh infection model; details: 1 mg/kg single intraperitoneal dose; 24 h time kill
experimental endpoint: AUCc-t (AUC difference between control and treated animals)

// worked examples, AUCc-t (AUC difference between control and treated animals) included
Give its AUCc-t (AUC difference between control and treated animals) value. Item: CCCCCCCCCCNCCNC1(C)CC(OC2C(Oc3c4cc5cc3Oc3ccc(cc3Cl)C(O)C3NC(=O)C(NC(=O)C5NC(=O)C(CC(N)=O)NC(=O)C(NC(=O)C(CC(C)C)NC)C(O)c5ccc(c(Cl)c5)O4)c4ccc(O)c(c4)-c4c(O)cc(O)cc4C(C(=O)NCCOCCOCCN)NC3=O)OC(CO)C(O)C2O)OC(C)C1O (stereo not drawn) [Compound 2]
29 (Log10 CFU/thigh)/hr

Entry to check: CNC(CC(C)C)C(=O)NC1C(=O)NC(CC(N)=O)C(=O)NC2C(=O)NC3C(=O)NC(C(=O)NC(C(=O)O)c4cc(O)c(CNCCOCCOCCN)c(O)c4-c4cc3ccc4O)C(O)c3ccc(c(Cl)c3)Oc3cc2cc(c3OC2OC(CO)C(O)C(O)C2OC2CC(C)(NCc3ccc(-c4ccc(Cl)cc4)cc3)C(O)C(C)O2)Oc2ccc(cc2Cl)C1O (stereo not drawn) [Compound 11]
12.9 (Log10 CFU/thigh)/hr

With those in mind, consider the next molecule.
Give its AUCc-t (AUC difference between control and treated animals) value. Item: CNC(CC(C)C)C(=O)NC1C(=O)NC(CC(N)=O)C(=O)NC2C(=O)NC3C(=O)NC(C(=O)NC(C(=O)NCCOCCOCCN)c4cc(O)cc(O)c4-c4cc3ccc4O)C(O)c3ccc(c(Cl)c3)Oc3cc2cc(c3OC2OC(CO)C(O)C(O)C2OC2CC(C)(NCc3ccc(OCc4ccc(Cl)c(Cl)c4)cc3)C(O)C(C)O2)Oc2ccc(cc2Cl)C1O (stereo not drawn) [Compound 27]
19.8 (Log10 CFU/thigh)/hr
